Provenance of the data: ChEMBL document CHEMBL3877257

test system: Staphylococcus aureus; assay: Antibacterial activity against Staphylococcus aureus clinical isolate after 18 to 24 hrs by broth microdilution method; assay type: functional
Overview of reported MIC across a group of molecules:

Solved cases below.
CC(=O)NC[C@H]1CN(c2ccc(N3CCOCC3)c(F)c2)C(=O)O1; 1 to 4 µg/mL
CCNC(=O)C1=CCN(C(=O)c2ccc(N3CCOCC3)c(F)c2)[C@@H]1C(C)C; > 128 µg/mL
CCNC(=O)C1=CCN(C(=O)c2ccc(N3CCOCC3)c(F)c2)[C@H]1C(C)C; > 128 µg/mL

Entry under review: CCNC(=O)C1C(=O)ON(C(=O)c2ccc(N3CCOCC3)c(F)c2)C1C1CCCCC1 (stereo not given) . Reported MIC?
32 to 128 µg/mL

May I ask what MIC has been recorded for CCNC(=O)C1C(=O)ON(C(=O)c2ccc(N3CCOCC3)c(F)c2)C1C(C)C (stereo not given) ?
> 128 µg/mL

* * *

Listed below: inhibition values for each entry.
tested on: HepG2; test: Inhibition of MAO activity in human HepG2 cells at 100 ug/mL after 24 hrs by spectrophotometric method; assay type: cell-based
Please reply with the bare figure in % and do not write the unit itself.

CCNC(=O)C1=CCN(C(=O)c2ccc(N3CCOCC3)c(F)c2)[C@H]1C(C)C; 45

I'd like to know its inhibition. The compound in question is CCNC(=O)C1C(=O)ON(C(=O)c2ccc(N3CCOCC3)c(F)c2)C1C(C)C (centres undefined)
45

Give its inhibition value. Item: CCNC(=O)C1C(=O)ON(C(=O)c2ccc(N3CCOCC3)c(F)c2)C1C1CCCCC1 (centres undefined)
45

Using the record for CC(=O)NC[C@H]1CN(c2ccc(N3CCOCC3)c(F)c2)C(=O)O1 , report its inhibition.
15
